Would you mind telling me the reported inhibition at 1 µM of each entry?
target: 5-HT6 receptor (Homo sapiens); construct: purchased PerkinElmer; test: Radioligand binding assay, serotoninergic 5-HT6 receptors; conditions: binding assay result in %, Table 5a;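 note: test compound at 1 µM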
Sequence (P50406 whole entry): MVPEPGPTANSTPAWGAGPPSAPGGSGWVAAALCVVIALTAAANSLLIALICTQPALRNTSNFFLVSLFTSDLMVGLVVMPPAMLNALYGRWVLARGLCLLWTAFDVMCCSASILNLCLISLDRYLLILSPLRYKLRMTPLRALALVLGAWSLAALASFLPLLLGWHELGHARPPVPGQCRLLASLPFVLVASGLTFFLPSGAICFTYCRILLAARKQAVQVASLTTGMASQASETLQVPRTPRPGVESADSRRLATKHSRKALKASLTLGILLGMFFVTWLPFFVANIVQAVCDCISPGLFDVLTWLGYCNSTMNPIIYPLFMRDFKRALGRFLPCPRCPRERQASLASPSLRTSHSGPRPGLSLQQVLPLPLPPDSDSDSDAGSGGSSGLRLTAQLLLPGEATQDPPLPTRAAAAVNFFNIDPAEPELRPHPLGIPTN
Respond with the bare value in %.

For the compound O=S(=O)(NCC1CCN(CCOc2cccc3c2OCCO3)C1)c1ccc(F)c(Cl)c1 (centres unmarked) , what inhibition at 1 µM is on record?
76

For the compound `O=S(=O)(N[C@@H]1CCN(CCCc2noc3cc(F)ccc23)C1)c1ccc2cc(Cl)ccc2c1` , what inhibition at 1 µM is on record?
99

For the compound O=S(=O)(NCC1CCN(CCOc2cccc3c2OCCO3)C1)c1ccc(C(F)(F)F)cc1 (centres unmarked) , what inhibition at 1 µM is on record?
47

For the compound Cc1c(S(=O)(=O)NC2CCN(CCCc3noc4cc(F)ccc34)C2)sc2ccc(Cl)cc12 (centres unmarked) , what inhibition at 1 µM is on record?
92

For the compound Cn1ccc2cc(S(=O)(=O)NCC3CCN(CCOc4cccc5ccccc45)C3)ccc21 (centres unmarked) , what inhibition at 1 µM is on record?
97

For the compound `O=S(=O)(NCC1CN(CCOc2cccc3ccccc23)C1)c1ccc2ccccc2c1` , what inhibition at 1 µM is on record?
99

For the compound `O=S(=O)(NCC1CN(CCOc2cccc3c2OCCO3)C1)c1ccc(-c2ccccc2)cc1` , what inhibition at 1 µM is on record?
21

For the compound O=S(=O)(NCC1CCN(CCOc2cccc3c2OCCO3)C1)c1ccc(Cl)cc1 (centres unmarked) , what inhibition at 1 µM is on record?
-1

For the compound CC1(C)Cc2cccc(OCCN3CCC(CNS(=O)(=O)c4ccc5ccccc5c4)C3)c2O1 (centres unmarked) , what inhibition at 1 µM is on record?
56

For the compound `O=S(=O)(NCC1CN(CCOc2cccc3ccccc23)C1)c1ccc(F)c(Cl)c1` , what inhibition at 1 µM is on record?
96

For the compound O=S(=O)(NC1CCN(CCOc2cccc3[nH]ccc23)C1)c1ccccc1 (centres unmarked) , what inhibition at 1 µM is on record?
10

For the compound Cc1c(S(=O)(=O)NC2CCN(CCCc3noc4cc(F)ccc34)C2)sc2ccc(F)cc12 (centres unmarked) , what inhibition at 1 µM is on record?
96

For the compound `Cc1c(S(=O)(=O)N[C@@H]2CCN(CCCc3noc4cc(F)ccc34)C2)sc2ccc(F)cc12` , what inhibition at 1 µM is on record?
100

For the compound O=S(=O)(NCC1CCN(CCOc2cccc3ccccc23)C1)c1ccc(F)c(Cl)c1 (centres unmarked) , what inhibition at 1 µM is on record?
93

For the compound O=S(=O)(NC1CCN(CCCc2noc3cc(F)ccc23)C1)c1ccc2ccccc2c1 (centres unmarked) , what inhibition at 1 µM is on record?
95

For the compound O=S(=O)(NC1CCN(CCCc2c[nH]c3ccc(Cl)cc23)C1)c1cccc(Cl)c1 (centres unmarked) , what inhibition at 1 µM is on record?
96

For the compound COc1ccc2cc(S(=O)(=O)NC3CCN(CCCc4noc5cc(F)ccc45)C3)ccc2c1 (centres unmarked) , what inhibition at 1 µM is on record?
94

###

biological target: α2C adrenergic receptors (Homo sapiens); construct: expressed in transfected cells; host or cells: CHO cells; assay: Radioligand binding assay, adrenergic α2C receptors; conditions: test compound 1×10^−6 M
Sequence (P18825 whole entry): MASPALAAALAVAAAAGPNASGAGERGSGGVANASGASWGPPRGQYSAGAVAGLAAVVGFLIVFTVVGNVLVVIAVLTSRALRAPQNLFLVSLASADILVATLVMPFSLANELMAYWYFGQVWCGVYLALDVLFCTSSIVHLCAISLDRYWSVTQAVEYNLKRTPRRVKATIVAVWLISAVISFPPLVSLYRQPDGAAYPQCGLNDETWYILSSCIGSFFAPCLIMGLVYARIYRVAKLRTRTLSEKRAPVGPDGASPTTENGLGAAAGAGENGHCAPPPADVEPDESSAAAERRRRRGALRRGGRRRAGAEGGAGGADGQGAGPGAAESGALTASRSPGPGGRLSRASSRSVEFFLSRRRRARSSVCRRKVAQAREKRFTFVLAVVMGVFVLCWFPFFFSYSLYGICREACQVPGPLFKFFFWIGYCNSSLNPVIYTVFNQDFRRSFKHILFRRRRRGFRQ
Recorded inhibition at 1 µM determines the label; the label ranges are low = under 80%, mid = from 80% up to 90%, high = 90% and over

Where would O=S(=O)(NCC1CCN(CCOc2cccc3c2OCCO3)C1)c1cccc(F)c1 (stereo not shown) [Compound 298] land among the classes by reported inhibition at 1 µM?
high

Where would CC1(C)Cc2cccc(OCCN3CCC(NS(=O)(=O)c4ccc5ccccc5c4)C3)c2O1 (stereo not shown) [Compound 108] land among the classes by reported inhibition at 1 µM?
mid

Where would O=S(=O)(NC1CCN(CCOc2cccc3ccccc23)C1)c1ccc2ccccc2c1 (stereo not shown) [Compound 116] land among the classes by reported inhibition at 1 µM?
high

Where would Cc1ccc2sc(S(=O)(=O)N[C@@H]3CCN(CCCc4noc5cc(F)ccc45)C3)cc2c1 [Compound 228] land among the classes by reported inhibition at 1 µM?
high

Where would Cc1c(S(=O)(=O)N[C@H]2CCN(CCCc3noc4cc(F)ccc34)C2)sc2ccc(Cl)cc12 [Compound 205] land among the classes by reported inhibition at 1 µM?
mid

Where would O=S(=O)(N[C@@H]1CCN(CCCc2noc3cc(F)ccc23)C1)c1cc2ccccc2o1 [Compound 214] land among the classes by reported inhibition at 1 µM?
low

Where would O=S(=O)(N[C@H]1CCN(CCCc2noc3cc(F)ccc23)C1)c1cc2ccccc2o1 [Compound 215] land among the classes by reported inhibition at 1 µM?
low

Where would Cc1c(S(=O)(=O)NC2CCN(CCCc3noc4cc(F)ccc34)C2)sc2ccc(F)cc12 (stereo not shown) [Compound 28] land among the classes by reported inhibition at 1 µM?
high

Where would Cc1ccc2sc(S(=O)(=O)NC3CCN(CCCc4noc5cc(F)ccc45)C3)cc2c1 (stereo not shown) [Compound 226] land among the classes by reported inhibition at 1 µM?
mid

Where would Cc1c(S(=O)(=O)NC2CCN(CCCc3noc4cc(F)ccc34)C2)sc2ccc(Cl)cc12 (stereo not shown) [Compound 29] land among the classes by reported inhibition at 1 µM?
mid

Where would O=S(=O)(NC1CN(CCOc2cccc3[nH]ccc23)C1)c1ccc2ccccc2c1 [Compound 50] land among the classes by reported inhibition at 1 µM?
high

Where would O=S(=O)(NCC1CCN(CCOc2cccc3c2OCCO3)C1)c1ccc(Br)cc1 (stereo not shown) [Compound 305] land among the classes by reported inhibition at 1 µM?
high

###

Would you mind telling me the reported σ [%] of each entry?
tested on: σ receptors; assay: Radioligand binding assay, σ receptors; conditions: rat cerebral cortex, [3H]DTG 8 nM
Lab note: write values as number then unit, every time.

For the molecule O=S(=O)(NC1CCN(CCOc2cccc3ccccc23)C1)c1ccc2ccccc2c1 (centres unmarked) , what σ [%] is on record?
56%

For the molecule `O=S(=O)(NCC1CN(CCCc2noc3cc(F)ccc23)C1)c1cccc2ccccc12` , what σ [%] is on record?
93%

For the molecule `CC(C)(C)c1ccc(S(=O)(=O)NCC2CN(CCOc3cccc4c3OCCO4)C2)cc1` , what σ [%] is on record?
75%

For the molecule O=S(=O)(NC1CCN(CCCc2noc3cc(F)ccc23)C1)c1ccc2ccccc2c1 (centres unmarked) , what σ [%] is on record?
60%

For the molecule `COc1ccc2cc(S(=O)(=O)N[C@@H]3CCN(CCCc4noc5cc(F)ccc45)C3)ccc2c1` , what σ [%] is on record?
90%

For the molecule O=S(=O)(NC1CCN(CCCc2c[nH]c3ccc(F)cc23)C1)c1ccc2ccccc2c1 (centres unmarked) , what σ [%] is on record?
81%

For the molecule O=S(=O)(NC1CCN(CCCc2c[nH]c3ccc(F)cc23)C1)c1ccc(F)cc1 (centres unmarked) , what σ [%] is on record?
75%

For the molecule `O=S(=O)(NC1CN(CCOc2cccc3c2OCCO3)C1)c1cccc2ccccc12` , what σ [%] is on record?
71%

###

Would you mind telling me the reported inhibition at 1 µM of each entry?
biological target: dopaminergic receptors D3 (Homo sapiens); test: Radioligand binding assay, dopaminergic D3 receptors; conditions: test compound 1×10^−6 M
Sequence (P35462 whole entry): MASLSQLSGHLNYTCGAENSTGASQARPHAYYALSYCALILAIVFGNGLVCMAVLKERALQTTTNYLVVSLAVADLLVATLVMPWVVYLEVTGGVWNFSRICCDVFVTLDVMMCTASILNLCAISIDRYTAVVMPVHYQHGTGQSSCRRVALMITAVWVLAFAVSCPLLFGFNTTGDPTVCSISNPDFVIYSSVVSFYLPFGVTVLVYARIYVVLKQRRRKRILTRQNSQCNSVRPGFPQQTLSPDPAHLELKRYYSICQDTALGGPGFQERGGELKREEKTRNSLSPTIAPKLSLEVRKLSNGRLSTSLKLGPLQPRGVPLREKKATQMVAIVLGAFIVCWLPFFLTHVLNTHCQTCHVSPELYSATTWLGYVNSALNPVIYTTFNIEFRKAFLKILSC
Respond with the bare value in %.

For the compound `O=S(=O)(NCC1CN(CCOc2cccc3c2OCCO3)C1)c1ccsc1` , what inhibition at 1 µM is on record?
25

For the compound O=S(=O)(NC1CCN(CCCc2noc3cc(F)ccc23)C1)c1ccc(Cl)cc1 (centres unmarked) , what inhibition at 1 µM is on record?
49

For the compound O=S(=O)(NCC1CCN(CCOc2cccc3c2OCCO3)C1)c1ccc(F)c(Cl)c1 (centres unmarked) , what inhibition at 1 µM is on record?
49

For the compound `O=S(=O)(NCC1CN(CCOc2cccc3c2OCCO3)C1)c1ccc(Cl)s1` , what inhibition at 1 µM is on record?
70

For the compound O=S(=O)(NCC1CCN(CCOc2cccc3ccccc23)C1)c1cccc2ccccc12 (centres unmarked) , what inhibition at 1 µM is on record?
90

For the compound `O=S(=O)(NCC1CN(CCCc2noc3cc(F)ccc23)C1)c1cccc(Cl)c1` , what inhibition at 1 µM is on record?
50

For the compound COc1cccc(S(=O)(=O)NC2CCN(CCCc3noc4cc(F)ccc34)C2)c1 (centres unmarked) , what inhibition at 1 µM is on record?
20

For the compound `O=S(=O)(NCC1CN(CCOc2nsc3ccccc23)C1)c1ccc2ccccc2c1` , what inhibition at 1 µM is on record?
100
